Conditions: in n-pentanol, 293.15 K
readout type: solubility (mole fraction)
Give bare numbers.

The recorded solubility (mole fraction) for entry CC(=O)NC1CCSC1=O (stereo unspecified) equals 0.0429

====

Conditions: in ethyl acetate, 323.15 K
readout type: solubility (mole fraction)

The recorded solubility (mole fraction) for entry CC(=O)NC1CCSC1=O (stereo unspecified) equals 0.0772

====

Details: in 2-propoxyethanol, 298.15 K
readout type: solubility (mole fraction)
Answers are plain numbers.

The recorded solubility (mole fraction) for entry CC(=O)NC1CCSC1=O (stereo unspecified) equals 0.123

====

Details: in 2-propoxyethanol, 313.15 K
readout type: solubility (mole fraction)
Numbers only.

The recorded solubility (mole fraction) for entry CC(=O)NC1CCSC1=O (stereo unspecified) equals 0.179

====

Details: in ethanol, 288.15 K
readout type: solubility (mole fraction)
Numbers only.

The recorded solubility (mole fraction) for entry CC(=O)NC1CCSC1=O (stereo unspecified) equals 0.055

====

Details: in n-propyl acetate, 293.15 K
readout type: solubility (mole fraction)
Answers are plain numbers.

The recorded solubility (mole fraction) for entry CC(=O)NC1CCSC1=O (stereo unspecified) equals 0.0217

====

Conditions: in n-butanol, 308.15 K
readout type: solubility (mole fraction)
Answers are plain numbers.

The recorded solubility (mole fraction) for entry CC(=O)NC1CCSC1=O (stereo unspecified) equals 0.0846

====

Conditions: in methyl acetate, 293.15 K
readout type: solubility (mole fraction)
Answers are plain numbers.

The recorded solubility (mole fraction) for entry CC(=O)NC1CCSC1=O (stereo unspecified) equals 0.0401

====

Settings: in n-propanol, 303.15 K
readout type: solubility (mole fraction)
Answers are plain numbers.

The recorded solubility (mole fraction) for entry CC(=O)NC1CCSC1=O (stereo unspecified) equals 0.0839

====

Details: in 2-propoxyethanol, 283.15 K
readout type: solubility (mole fraction)
One number for each entry.

The recorded solubility (mole fraction) for entry CC(=O)NC1CCSC1=O (stereo unspecified) equals 0.0874

====

Settings: in ethanol, 308.15 K
readout type: solubility (mole fraction)

The recorded solubility (mole fraction) for entry CC(=O)NC1CCSC1=O (stereo unspecified) equals 0.132

====

Conditions: in methyl acetate, 298.15 K
readout type: solubility (mole fraction)

The recorded solubility (mole fraction) for entry CC(=O)NC1CCSC1=O (stereo unspecified) equals 0.0478

====

Settings: in n-pentanol, 283.15 K
readout type: solubility (mole fraction)
Answers are plain numbers.

The recorded solubility (mole fraction) for entry CC(=O)NC1CCSC1=O (stereo unspecified) equals 0.0294

====

Settings: in ethyl acetate, 303.15 K
readout type: solubility (mole fraction)

The recorded solubility (mole fraction) for entry CC(=O)NC1CCSC1=O (stereo unspecified) equals 0.0388

====

Settings: in n-butanol, 323.15 K
readout type: solubility (mole fraction)
Numbers only.

The recorded solubility (mole fraction) for entry CC(=O)NC1CCSC1=O (stereo unspecified) equals 0.159

====

Details: in 2-methoxyethanol, 288.15 K
readout type: solubility (mole fraction)
Answers are plain numbers.

The recorded solubility (mole fraction) for entry CC(=O)NC1CCSC1=O (stereo unspecified) equals 0.169

====

Conditions: in 2-propoxyethanol, 308.15 K
readout type: solubility (mole fraction)
Answers are plain numbers.

The recorded solubility (mole fraction) for entry CC(=O)NC1CCSC1=O (stereo unspecified) equals 0.158

====

Conditions: in n-propanol, 293.15 K
readout type: solubility (mole fraction)
Answers are plain numbers.

The recorded solubility (mole fraction) for entry CC(=O)NC1CCSC1=O (stereo unspecified) equals 0.0553
